Hey, just so you know, these numbers are from PubChem BioAssay (NCI).

test system: SK-MEL-28 melanoma; assay: NCI-60 one-dose screen, 48 h; conditions: 10 µM unless noted
Compounds without any hit were thinned out: in the full panel of roughly 83,000, 20% have a hit. The source made the active and inactive calls. Rule for the calls: active = growth percent below 10; inactive = the rest.
Outcome field: choose from 1 (active), 0 (inactive)

smiles.notation	cat
Nc1nc2ccccc2c2c(=O)c3cc(Cl)ccc3sc12	0
CC(C)(Sc1cc(C(C)(C)C)c(O)c(C(C)(C)C)c1)Sc1cc(C(C)(C)C)c(OC(=O)CCC(=O)O)c(C(C)(C)C)c1	0
C=C(C)[C@@H]1CC[C@]2(CO)CC[C@]3(C)[C@H](CC[C@@H]4[C@@](C)(CCCN)[C@H](C(=C)C)CC[C@]43C)[C@@H]12	1

--- query ---
[in] Per the records of this test, what outcome belongs to Brc1ccc(Nc2nc(Nc3cnc4ccccc4c3)c3[nH]cnc3n2)cc1 ?
[out] 0

----------
System: SK-MEL-28 melanoma
Test: NCI-60 one-dose screen, 48 h (100 = growth as untreated, 0 = no growth, -100 = all killed)
Settings: 10 µM unless noted
Experimental: Growth inhibition of the SK-MEL-28 human tumor cell line is measured as a screen for anti-cancer activity. Cells are grown in 96 well plates and exposed to the test compound for 48 hours. Compounds are tested at a single concentration, which is 10^-5 M for most compounds. The reported endpoint is percent growth (GI% or GIPRCNT), where numbers from 0 - 100% represent growth inhibition, and numbers from -100% - 0 represent cell death. For example, a value of 40 represents 60% growth inhibition. […]
About 83,000 compounds went through this panel and 20% of them were active in at least one assay; those are over-represented in the sample as a whole.
Each entry gets no if its growth stays under 90%, and yes if its growth is 90% or above.

Below are worked cases with known answers.
molecule	cat
CCN(CC)CCOc1ccc(/C(=C(\C)Cc2ccc(OC)cc2)c2ccc(OC(=O)NCc3ccccc3)cc2)cc1	no
COC(=O)c1ccc2cc(OC)c(OC)cc2c1	yes
O=C(CN1C(=O)S/C(=C\C(Cl)=C\c2ccccc2)C1=O)NC1CCS(=O)(=O)C1 (configuration not stated)	no
Cc1cc(C(=O)CCCC(=O)c2cc(C)c(O)c(C)c2)cc(C)c1O	yes
Cc1[nH]c(C(=O)Nc2ccccc2OC2CCN(CCN3CCOCC3)CC2)c(Cl)c1Cl	yes
O=C(/C=C/C12c3ccccc3C(c3ccccc31)C1C(=O)NC(=O)C12)c1ccc(Cl)cc1Cl (configuration not stated)	no

[in] Confirm if growth reported for the molecule c1ccc(-c2nc3ccccc3[nH]2)c(OCCCCCOc2ccccc2-c2nc3ccccc3[nH]2)c1 is 90% or above.
[out] no

[in] Does the reported growth for ClC(Cl)c1nc(-c2ccccc2)n2nc(-c3ccccc3)cc2n1 fall at or above the 90% mark?
[out] no

----------
tested on: SF-295 CNS; experiment: NCI-60 one-dose screen, 48 h (100 = growth as untreated, 0 = no growth, -100 = all killed); conditions: 10 µM unless noted
Compounds without any hit were thinned out: in the full panel of roughly 83,000, 20% have a hit.
measurement.name: growth (%)
Use % as the unit, but write only the number.

Reference set, count: 2
compound	growth (%)
CCN1C(=O)N(c2ccccc2)C2NC(=S)N(/N=C/C=C/c3ccccc3OC)C21 (stereo not drawn)	14.2
CCN(CC)c1ccc(-c2cc(-c3cc(OC)c(OC)c(OC)c3)nc(N3CCC(O)CC3)c2C#N)cc1	-62.2

# evaluate next
Form: compound = C=CC(CC(c1ccccc1)(c1ccccc1)c1ccccc1)N(CC)CC (stereo not drawn) ; growth = 78.8

----------
system: SK-OV-3 ovarian; experiment: NCI-60 one-dose screen, 48 h (100 = growth as untreated, 0 = no growth, -100 = all killed); details: 10 µM unless noted
This is part of a sample that, as a whole, favours compounds with a hit. Of some 83,000 tested, about 20% had one in any assay.
Decide using growth alone. Strictly below 60%: condition met. Equal to or above 60%: condition not met.

smiles.notation	cat
N#Cc1c(-c2ccccc2)cc(-c2ccccc2)n(CCCCC(=O)NO)c1=O	condition met
O=C(O)c1cn(C2CC2)c2cc(N3CCN(C(=O)N/N=C/c4cccc5ccccc45)CC3)c(F)cc2c1=O	condition not met
COc1cc2ncnc(Nc3ccc(F)c(Cl)c3)c2cc1OCC(=O)N1CCOCC1	condition met
COc1ccc2c(c1)c(-c1nc(-c3ccc4ccccc4c3)cs1)cn2C	condition not met

[in] Threshold test, growth < 60%: ClCCn1cnc2c(SCc3ccccc3)ncnc21
[out] condition not met

----------
Test system: MCF7 breast
Assay: NCI-60 one-dose screen, 48 h (100 = growth as untreated, 0 = no growth, -100 = all killed)
Details: 10 µM unless noted
Protocol: Growth inhibition of the MCF7 human tumor cell line is measured as a screen for anti-cancer activity. Cells are grown in 96 well plates and exposed to the test compound for 48 hours. Compounds are tested at a single concentration, which is 10^-5 M for most compounds. The reported endpoint is percent growth (GI% or GIPRCNT), where numbers from 0 - 100% represent growth inhibition, and numbers from -100% - 0 represent cell death. For example, a value of 40 represents 60% growth inhibition. […]
Compounds without any hit were thinned out: in the full panel of roughly 83,000, 20% have a hit. Active and inactive are the calls of the source. The calls were made as follows: active = growth percent below 10; inactive = the rest.
Entries and their growth

Quick note, growth for CCOc1ccc(NC(=O)Nc2ccc(OCC)cc2)cc1 landed at 94.5% (inactive)

// recorded growth for CCN(CC)CCOc1ccc(Nc2ncc3cc(-c4c(Cl)cccc4Cl)c(=O)n(CCOC)c3n2)cc1 : 17.2% (inactive)

The compound listed as CS(=O)(=O)Nc1cc(-c2ccc3ncnc(Nc4ccc5c(cnn5Cc5ccncc5)c4)c3c2)cnc1Cl shows growth equal to 31.3% (inactive)

Measured growth of CC(C)(C)OC(=O)CN1CCc2c(sc3ncnc(N4CCN(c5ccc(F)cc5)CC4)c23)C1 : 90.6% (inactive)

# compound COc1ccc(Cl)cc1Nc1nc(C(F)(F)F)ccc1C(=O)N/N=C/c1ccc([N+](=O)[O-])cc1 ; its growth = -8.58% (active)

----------
tested on: RPMI-8226 leukemia; assay: NCI-60 one-dose screen, 48 h; conditions: 10 µM unless noted
This is part of a sample that, as a whole, favours compounds with a hit. Of some 83,000 tested, about 20% had one in any assay. The source made the active and inactive calls. How the source made its calls: active means growth percent below 10; inactive means the rest.
Outcome field: choose from class 1 (active), class 0 (inactive)

Illustrative cases are given below, each with its answer.
compound	cat
C/C=C1/CN(CCCCC)CC[C@H]1C(=O)c1cc2ccccc2[nH]1	class 0
COc1ccc2c(c1)c(-c1nc(-c3ccc4ccccc4c3)cs1)cn2C	class 0

[in] Answer briefly: the call reported for COc1ccc(-c2cc(-c3cccnc3)nc3sc4c(N)c(C(C)=O)c(-c5ccccc5)nc4c23)cc1OC in this assay.
[out] class 0

[in] Could you check what this test reported for CCN(CC)CCN1C(=O)c2c(c3c4ccccc4[nH]c3c3ccc4ccccc4c23)C1=O ?
[out] class 1

[in] Answer briefly: the call reported for CS(=O)(=O)Nc1cc(-c2ccc3ncnc(Nc4ccc5c(cnn5Cc5ccccc5F)c4)c3c2)cnc1Cl in this assay.
[out] class 1

[in] What was the test verdict on Cc1ccc(Cc2cnc(NC(=O)/C=C/c3ccc(C)o3)s2)cc1 ?
[out] class 0

[in] Lab log entry: O=C1O[C@@H](c2ccccc2Cl)[C@@H]2c3cc4c(cc3CCN12)OCO4 — outcome as called in the assay?
[out] class 0

[in] Called result for C=C(C)[C@@H]1CC[C@]2(C(=O)Nc3ccccn3)CC[C@]3(C)[C@H](CC[C@@H]4[C@@]5(C)CCCNC(C)(C)[C@@H]5CC[C@]43C)[C@@H]12
[out] class 1

----------
test system: TK-10 renal; test: NCI-60 one-dose screen, 48 h (100 = growth as untreated, 0 = no growth, -100 = all killed); details: 10 µM unless noted
About 83,000 compounds went through this panel and 20% of them were active in at least one assay; those are over-represented in the sample as a whole.
Kindly return MET if reported growth is no lower than 40%; return NOT MET if it is lower.

[in] # check: growth of Cn1cc(-c2nc3c(F)cc4[nH]ncc4c3c3c2CCCC3)c(C(F)(F)F)n1 is greater than or equal to 40%
[out] NOT MET

[in] Could you please find out whether COC(=O)[C@]1(C)CCC[C@]2(C)[C@H]3C[C@@H]4[C@H]5[C@@H]6CC/C(=N\OCC/C(N)=N/O)[C@H]5[C@@]3(CC[C@H]21)CC4(C(C)C)O6 has growth that meets 40% or exceeds it?
[out] MET

[in] Does the compound NCCCNc1nc2ccccc2c2c(=O)c3cc(Cl)ccc3sc12 have recorded growth that is 40% or more?
[out] NOT MET

[in] Can CCOC(=O)CNC1=C(Cl)C(=O)N(Cc2ccc(Cl)cc2)C1=O be said to have growth at or above 40%?
[out] MET

[in] # check: growth of CC1(C)N=C(N)N=C(N)N1c1ccc(S(=O)(=O)Nc2nccs2)cc1 is greater than or equal to 40%
[out] MET
